In this section we review reported slope values for a set of compounds.
Molecular target: Alpha-2C adrenergic receptor (Homo sapiens) (UniProt P18825)
Sequence (P18825 whole entry, looked up): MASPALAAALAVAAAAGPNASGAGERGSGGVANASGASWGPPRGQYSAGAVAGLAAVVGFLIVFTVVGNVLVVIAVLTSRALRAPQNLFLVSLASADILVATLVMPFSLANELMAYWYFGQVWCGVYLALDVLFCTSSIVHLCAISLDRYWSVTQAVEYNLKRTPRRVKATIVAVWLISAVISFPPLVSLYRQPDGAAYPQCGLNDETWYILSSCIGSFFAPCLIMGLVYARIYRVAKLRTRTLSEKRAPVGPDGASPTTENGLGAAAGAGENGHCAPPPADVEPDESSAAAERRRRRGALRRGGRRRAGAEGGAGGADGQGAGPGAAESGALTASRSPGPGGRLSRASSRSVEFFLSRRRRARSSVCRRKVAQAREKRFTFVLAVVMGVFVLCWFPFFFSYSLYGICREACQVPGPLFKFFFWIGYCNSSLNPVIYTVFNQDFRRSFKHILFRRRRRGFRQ
Test: compounds altering alpha2C-coupled GIRK flux – cell-based, HEK293 alpha2C/GIRK1/2, thallium flux, primary screen (AID 624);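 also: slope of fluorescence ratio to pre-addition baseline per second over 15 to 24 s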
Settings: thallium flux BTC fluorescence, at 10 µM, actives lie on both sides
Active and inactive are the calls of the source.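 The calls were made as follows: active = fluorescence slope after compound addition differing from the mean of all screened samples at 99.7% confidence, in either direction; inactive = the rest.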

COMPOUND: CC(=O)Nc1ccc(S(=O)(=O)NCC2CCC(C(=O)NCCCN3CCCC3=O)CC2)cc1 (configuration not stated)
slope: 0.00457 (inactive)
--
COMPOUND: COc1ccc(N2CCN(c3ccc(N)cc3C#N)CC2)cc1
slope: 0.00782 (inactive)
--
COMPOUND: Cn1c(CNc2nc(-c3ccccc3)cs2)nnc1SCC(=O)N1CCc2ccccc21
slope: 0.00569 (inactive)
--
COMPOUND: CCOC(=O)N1CCC(N2C(=O)c3ccccc3C2Nc2cc(Cl)c(OC)cc2OC)CC1 (configuration not stated)
slope: 0.0052 (inactive)
--
COMPOUND: CCc1nnc(NC(=O)c2ccc(COc3ccc(C)cc3)o2)s1
slope: 0.00745 (inactive)
--
COMPOUND: CC(C)(C)n1nnnc1C(c1ccccc1)N1CCc2ccccc2C1 (configuration not stated)
slope: 0.00496 (inactive)
--
COMPOUND: Cc1oc(-c2ccccc2F)nc1CS(=O)(=O)CC(=O)N1CCN(Cc2ccccc2)CC1
slope: 0.00602 (inactive)
--
COMPOUND: Cc1ccc(OCCC(=O)OCC(=O)C(C)(C)C)cc1
slope: 0.0062 (inactive)
--
COMPOUND: CCCN(CCC)C(=O)c1c(C)[nH]c(C(=O)OCC)c1C
slope: 0.00726 (inactive)
--
COMPOUND: CCc1c(C)c2c(C)nn(-c3ccccc3)c2[nH]c1=O
slope: 0.00678 (inactive)
--
COMPOUND: COc1ccc(C2CC(c3ccccc3)Nc3nc(NC(=O)c4cccs4)nn32)cc1 (configuration not stated)
slope: 0.00554 (inactive)
--
COMPOUND: Cc1csc(NC(=O)C2CCCO2)n1 (configuration not stated)
slope: 0.00887 (inactive)
--
COMPOUND: CC(C)(C)SCCNC(=O)COc1ccc(Cl)cc1
slope: 0.00681 (inactive)
--
COMPOUND: COc1cccc(CN2CCN(C(=O)CC(C)C)CC2)c1
slope: 0.00544 (inactive)
--
COMPOUND: Cc1cccc2sc(NC(=O)Cn3cccc3)nc12
slope: 0.0115 (active)
--
COMPOUND: COCCn1c(-c2ccco2)nc2nc3ccccc3nc21
slope: 0.00377 (inactive)
--
COMPOUND: CC1(C)Cc2ccccc2C(N)=C1C#N
slope: 0.00508 (inactive)
--
COMPOUND: COc1ccc(C(=O)CN2C3=NCCCN3c3ccccc32)cc1OC
slope: 0.00312 (inactive)
--
COMPOUND: O=C(Nc1cccc(Cl)c1)N1CCN(Cc2ccccc2)CC1
slope: 0.00631 (inactive)
--
COMPOUND: CC1(C)C(c2ccccc2)=NC(c2ccccc2)N1O (configuration not stated)
slope: 0.0012 (inactive)
--
COMPOUND: CCN(CC)C(=O)C1=C(C)Nc2nnnn2C1c1cccnc1 (configuration not stated)
slope: 0.0059 (inactive)
--
COMPOUND: CCOc1cc(C2CC(=O)N3CN(C4CCCCC4)CSC3=C2C#N)ccc1O (configuration not stated)
slope: 0.00576 (inactive)
